Just for reference, the supplement of paper PMC11451515 is where these values come from.

Test system: NOMO1
Assay: cell viability relative to DMSO control; higher = less cytotoxic
Conditions: RPMI 5 mM glucose + 10% dialyzed FBS; 48 h; 0.00234 µM
ASSAY READOUT: cell viability (%)
Give a bare numeral; the unit % is implied.

stdin: GET /values?readout=cell viability&item= `Cn1c(=O)n(-c2ccc(C(C)(C)C#N)cc2)c2c3cc(-c4cnc5ccccc5c4)ccc3ncc21`
stdout: 120

stdin: Also `Nc1cccc2c1CN([C@H]1CCC(=O)NC1=O)C2=O` ?
stdout: 111

stdin: And for `CN(C)CC[C@H](c1ccc(Cl)cc1)c1ccccn1` ?
stdout: 88.2

stdin: Could you do the same for `NC(=O)c1cccc2nc(-c3ccc([C@H]4CCCN4)cc3F)[nH]c12` , please?
stdout: 112

stdin: Now the molecule CN1CCCC(CC1)N2\N=C(CC3=CC=C(Cl)C=C3)/C4=C(C=CC=C4)C2=O (configuration not stated)
stdout: 118

---
stdin: Would you mind telling me what cell viability value was observed for `Nc1nnc(-c2cccc(Cl)c2Cl)c(N)n1` ?
stdout: 89.2

stdin: Check `Cn1cc(/C=C2\C(=O)Nc3cccnc32)c2ccccc21` too.
stdout: 118

====

Measured cell viability, listed per entry.
Tested on: SEM cells
Assay: cell viability relative to DMSO control; higher = less cytotoxic
Conditions: RPMI 5 mM glucose + 10% dialyzed FBS; 48 h; 0.00702 µM
A number alone suffices; assume %.

stdin: Field request: cell viability | item: COc1cc2nc(N3CCN(C(=O)C4CCCO4)CC3)nc(N)c2cc1OC (stereo not drawn)
stdout: 110

stdin: Same again, this time with `CC(C)c1cc(C(=O)N2Cc3ccc(CN4CCN(C)CC4)cc3C2)c(O)cc1O`
stdout: 120

stdin: `Cc1ccc([S+](=O)([O-])Nc2nc3ccccc3nc2Nc2ccc3nsnc3c2)cc1` ?
stdout: 84.8

stdin: Can you handle `CCOC(=O)c1cncn1[C@H](C)c1ccccc1` next?
stdout: 93.8

stdin: Please do the same for `CCC(=O)N[C@H]1CC[C@H](C(=O)N(C)c2ccc(-c3nc4ccccc4o3)cc2)C1` as well.
stdout: 83.5

stdin: Same question for `O=C(c1ccc(F)c(F)c1Nc1ccc(I)cc1F)N1CC(O)([C@@H]2CCCCN2)C1` please.
stdout: 97.4

stdin: Next compound up: `COC1=C2C[C@@H](C)C[C@H](OC)[C@H](O)[C@@H](C)/C=C(\C)[C@H](OC(N)=O)[C@@H](OC)/C=C/C=C(\C)C(=O)NC(=CC1=O)C2=O`
stdout: 102

stdin: Now try CC1=C(CC(=O)O)c2cc(F)ccc2/C1=C\c1ccc([S+](C)[O-])cc1 (stereo not drawn) .
stdout: 119

stdin: Can you check `CCCCCCCCCC(=O)N[C@@H](Cc1c[nH]c2ccccc12)C(=O)N[C@H](CC(N)=O)C(=O)N[C@@H](CC(=O)O)C(=O)N[C@@H]1C(=O)NCC(=O)N[C@@H](CCCN)C(=O)N[C@@H](CC(=O)O)C(=O)N[C@H](C)C(=O)N[C@@H](CC(=O)O)C(=O)NCC(=O)N[C@H](CO)C(=O)N[C@@H]([C@@H](C)CC(=O)O)C(=O)N[C@@H](CC(=O)c2ccccc2N)C(=O)O[C@@H]1C` next?
stdout: 94.8

stdin: Okay, and `CC1(C)CNc2cc(NC(=O)c3cccnc3NCc3ccncc3)ccc21` ?
stdout: 105

Others:
stdin: Bench note: what cell viability did `CN1C(=O)C[C@H](C(=O)N[C@@H](Cc2cnc[nH]2)C(=O)N2CCC[C@H]2C(N)=O)NC1=O` show?
stdout: 120

====

Examples of molecules with documented cell viability follow.
Tested on: P12-Ichikawa
Assay: cell viability relative to DMSO control; higher = less cytotoxic
Settings: RPMI 5 mM glucose + 10% dialyzed FBS; 48 h; 46.1 µM
Please state the figure in %; there is no need to write the unit.

stdin: Data request, read-out cell viability, for CC/1=C(/C(CC(=O)N1)C2=CC=C(C=C2)C(F)(F)F)C(=O)NC3=C(F)C=C4[NH]N=CC4=C3 (centres undefined)
stdout: 47.6

stdin: Please give the result for `NC(=O)c1cccc2nc(-c3ccc([C@H]4CCCN4)cc3F)[nH]c12` too.
stdout: 65.1

stdin: Same thing, different molecule: `O=C(c1ccc(F)c(F)c1Nc1ccc(I)cc1F)N1CC(O)([C@@H]2CCCCN2)C1`
stdout: 14.8

stdin: Proceed to `CCN(CC)CCCCNc1ncc2c(n1)N(C)C(=O)N(c1c(Cl)c(OC)cc(OC)c1Cl)C2`
stdout: 22.8

stdin: Follow-up item: CN1CCCC(CC1)N2\N=C(CC3=CC=C(Cl)C=C3)/C4=C(C=CC=C4)C2=O (centres undefined)
stdout: 65.9

stdin: Ok, now `CC(/C=C/C(=O)NO)=C\[C@@H](C)C(=O)c1ccc(N(C)C)cc1`
stdout: 0.629

stdin: For `CN(C)CCCN1c2ccccc2CCc2ccc(Cl)cc21` then?
stdout: 82.9

stdin: Item: `CCC\C1=C\C(=O)NC(=S)N1`
stdout: 9.42

stdin: Also `O=C(Nc1ncc(SCCN2CCCC2)s1)[C@]1(c2ccc([S+](=O)([O-])C3CC3)cc2)C[C@H]1C1CCCCC1` , if possible.
stdout: 35.9

====

Test system: SEM cells
Assay: cell viability relative to DMSO control; higher = less cytotoxic
Conditions: HPLM + 10% dialyzed FBS; 48 h; 0.569 µM
ASSAY READOUT: cell viability (%)
Give just the number in %; leave the unit off.

stdin: Dear colleague, I am looking for the recorded cell viability of the following compound: `O=C(c1ccc(F)c(F)c1Nc1ccc(I)cc1F)N1CC(O)([C@@H]2CCCCN2)C1`
stdout: 105

***
stdin: Item under review: `CC(C)C[C@H](NC(=O)CNC(=O)c1cc(Cl)ccc1Cl)B(O)O` . Reported cell viability?
stdout: 7.52

stdin: Quick one: `C[C@H]1[C@@H](C(=O)C[C@H]2O[C@@H]3O[C@]4(C)CC[C@H]5[C@H](C)CC[C@@H]([C@H]2C)[C@@]35OO4)O[C@@H]2O[C@]3(C)CC[C@H]4[C@H](C)CC[C@@H]1[C@@]24OO3`
stdout: 84.6

stdin: Okay, and `CC[C@@H]1/C=C(\C)C[C@H](C)C[C@H](OC)[C@H]2O[C@@](O)(C(=O)C(=O)N3CCCC[C@H]3C(=O)O[C@H](/C(C)=C/[C@@H]3CC[C@H](Cl)[C@H](OC)C3)[C@H](C)[C@@H](O)CC1=O)[C@H](C)C[C@@H]2OC` ?
stdout: 117

====

Test system: P12-Ichikawa
Test: cell viability relative to DMSO control; higher = less cytotoxic
Details: HPLM + 10% dialyzed FBS; 48 h; 0.0632 µM
ASSAY READOUT: cell viability (%)
Number in %, nothing else.

// below: answered molecules
stdin: Param item = `CCC(=C/[C@H](C)C/C=C/C(C)=C/[C@@H](C)C(=O)[C@@H](C)[C@H](O)[C@@H](C)C/C(C)=C/C(=O)O)/C=C/[C@@H]1OC(=O)C=C[C@@H]1C` ; retrieve measured cell viability.
stdout: 118

stdin: What about OC(=O)C(CC/1=C/C(=O)NC2=CC=CC=C12)NC(=O)C3=CC=C(Cl)C=C3 (stereo unspecified) ?
stdout: 123

stdin: `COC[C@H](c1ccc(C(F)(F)F)cc1)N1CCN(C2(C)CCN(C(=O)c3c(C)ncnc3C)CC2)C[C@H]1C.O=C(O)/C=C\C(=O)O` ?
stdout: 107

stdin: For CC1=C(CC(=O)O)c2cc(F)ccc2/C1=C\c1ccc([S+](C)[O-])cc1 (stereo unspecified) then?
stdout: 124

stdin: And the next one, `COc1cc2nc(-c3cc(F)ccc3O)nc(N[C@@H]3CNC[C@H]3C(C)(C)O)c2cc1OC` ?
stdout: 110

stdin: Now the molecule C=CC(=O)Nc1cccc(Nc2nc(NC3CCC(N(C)C)CC3)nc3c2ncn3C(C)C)c1 (stereo unspecified)
stdout: 112

New cases:
stdin: Look up cell viability for this molecule: `CC[C@@]1(O)C(=O)OC\C2=C1\C=C\3N(CC4=C3N=C5C=CC=CC5=C4)C2=O`
stdout: 13.3

stdin: Now give it for `Cc1[nH]c(/C=C2\C(=O)Nc3ccccc32)c(C)c1CCC(=O)O` too.
stdout: 111

stdin: What do you get for `C[S+](=O)([O-])c1ccc(C(=O)Nc2ccc(Cl)c(-c3ccccn3)c2)c(Cl)c1` ?
stdout: 131

stdin: Ok, now `O=C1Nc2ccc(I)cc2/C1=C/c1cc(Br)c(O)c(Br)c1`
stdout: 109

stdin: One more molecule: `COC/1=C/C=C2\C(=C/C1=O)[C@H](CCC3=CC(=C(OC)C(=C23)OC)OC)NC(C)=O`
stdout: 10.9

stdin: Proceed to `C[C@]12CC[C@H]3[C@@H](CCC/4=C/C(=O)CC[C@]34C)[C@@H]1CC[C@@H]2O`
stdout: 128
